target: Acetylcholinesterase (AChE) (Homo sapiens, UniProt P22303); assay: biochemical; details: 500.00 μg/mL upper concentration limit; read-out: Inhibitory Activities IC50, Acetylcholinesterase (converted)
Sequence (P22303 32-614, species assumed): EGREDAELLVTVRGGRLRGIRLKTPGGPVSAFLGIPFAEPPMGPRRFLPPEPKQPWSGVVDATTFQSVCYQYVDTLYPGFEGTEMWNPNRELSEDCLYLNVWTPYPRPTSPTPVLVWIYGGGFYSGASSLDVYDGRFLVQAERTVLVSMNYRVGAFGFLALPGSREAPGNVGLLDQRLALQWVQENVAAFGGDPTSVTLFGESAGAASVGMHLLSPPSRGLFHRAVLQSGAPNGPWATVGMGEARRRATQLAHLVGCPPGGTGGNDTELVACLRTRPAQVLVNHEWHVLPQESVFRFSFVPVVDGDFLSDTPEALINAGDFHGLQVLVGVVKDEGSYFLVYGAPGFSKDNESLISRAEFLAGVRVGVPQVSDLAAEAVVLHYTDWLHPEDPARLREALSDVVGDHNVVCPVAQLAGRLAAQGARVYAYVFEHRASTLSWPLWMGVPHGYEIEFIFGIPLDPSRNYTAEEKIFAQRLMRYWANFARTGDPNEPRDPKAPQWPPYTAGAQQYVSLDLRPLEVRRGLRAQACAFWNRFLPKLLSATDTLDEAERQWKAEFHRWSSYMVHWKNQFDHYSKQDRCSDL
measure: IC50 (µM)
All answers are understood in µM, so give the number only.

Query: Which IC50 is reported for this molecule? `CC(C)C(=O)c1c(O)cc(O)c2c1OC(C)(C)[C@@H](O)C2`
Reply: 974

Query: Which IC50 is reported for this molecule? `CC(C)=CCOc1cc(O)c(C(=O)C(C)C)c(O)c1`
Reply: 957

Query: Which IC50 is reported for this molecule? CC1(C)CC[C@]2(C)CC=C3[C@](C)(CCC4[C@@]5(C)CC[C@H](O)[C@](C)(CO)C5CC[C@@]34C)C2C1 (stereo partly drawn) [Compound 11, 3β-24-dihydroxyterexer-14-ene]
Reply: 707

Query: Which IC50 is reported for this molecule? CCC(C)C(=O)c1c(O)cc(OCC=C(C)C)cc1O (centres unmarked)
Reply: 981

Query: Which IC50 is reported for this molecule? CC(=O)OC/C(C)=C/Cc1c(O)cc(O)c(C(=O)C(C)C)c1O [Compound 10, caespitate]
Reply: 777

----------
Kindly state IC50 for each of the entries shown.
target: elastase from porcine pancrease (Sus scrofa); construct: from tissue; host or cells: porcine pancreas; assay: biochemical; settings: SANA substrate; samples screened at 100.00 μg/mL upper limit; read-out: Inhibitory Activities IC50, Elastase (converted)
All answers are understood in µM, so give the number only.

Query: Which IC50 is reported for this compound? `CC(C)C(=O)c1c(O)cc(O)c2c1OC(C)(C)[C@@H](O)C2`
Reply: 90.3

Query: Which IC50 is reported for this compound? `CC(C)=CCc1c(O)cc(O)c(C(=O)C(C)C)c1O`
Reply: 233

Query: Which IC50 is reported for this compound? `CCCC(=O)c1c(O)cc(O)c(CC=C(C)C)c1O`
Reply: 134

Query: Which IC50 is reported for this compound? `CCCC(=O)c1c(O)cc(O)c(C/C=C(\C)COC(C)=O)c1O`
Reply: 197

Query: Which IC50 is reported for this compound? `CC(C)=CCOc1cc(O)c(C(=O)C(C)C)c(O)c1`
Reply: 263

----------
Kindly state Anti-Lipid peroxidation IC50 for each of the entries shown.
tested on: Rat liver microsomes; settings: Fe2+-induced, TBARs, samples screened at 50.00 μg/mL, ± STDEV
All answers are understood in µg/mL, so give the number only.

Query: Which Anti-Lipid peroxidation IC50 is reported for this compound? CCC(C)C(=O)c1c(O)cc(OCC=C(C)C)cc1O (centres unmarked) [Compound 4]
Reply: 44.62

Query: Which Anti-Lipid peroxidation IC50 is reported for this compound? CC(C)=CCOc1cc(O)c(C(=O)C(C)C)c(O)c1 [Compound 5]
Reply: 20.22

Query: Which Anti-Lipid peroxidation IC50 is reported for this compound? C=C(C)[C@@H](O)Cc1c(O)cc(O)c(C(=O)c2ccccc2)c1O [Compound 2]
Reply: 3.55

Query: Which Anti-Lipid peroxidation IC50 is reported for this compound? CCCC(=O)c1c(O)cc(O)c(C/C=C(\C)COC(C)=O)c1O [Compound 8]
Reply: 27.56

Query: Which Anti-Lipid peroxidation IC50 is reported for this compound? CC(=O)OC/C(C)=C/Cc1c(O)cc(O)c(C(=O)C(C)C)c1O [Compound 10, caespitate]
Reply: 20.50

Query: Which Anti-Lipid peroxidation IC50 is reported for this compound? CC(C)=CCc1c(O)cc(O)c(C(=O)C(C)C)c1O [Compound 9]
Reply: 20.95

Query: Which Anti-Lipid peroxidation IC50 is reported for this compound? O=C(O[C@@H]1Cc2c(O)cc(O)cc2O[C@@H]1c1cc(O)c(O)c(O)c1)c1cc(O)c(O)c(O)c1 [EGCG, epigallocatechin gallate, reference compound]
Reply: 1.04

Query: Which Anti-Lipid peroxidation IC50 is reported for this compound? CCCC(=O)c1c(O)cc(O)c(CC=C(C)C)c1O [Compound 6, 1-(butanone)-3-prenyl-phloroglucinol]
Reply: 30.80

----------
Kindly state IC50 for each of the entries shown.
molecular target: elastase from porcine pancrease (Sus scrofa, UniProt P00772); construct: from tissue; host or cells: porcine pancreas; assay: biochemical; details: SANA substrate; samples screened at 100.00 μg/mL upper limit; read-out: Inhibitory Activities IC50, Elastase (converted)
Sequence (P00772 27-266): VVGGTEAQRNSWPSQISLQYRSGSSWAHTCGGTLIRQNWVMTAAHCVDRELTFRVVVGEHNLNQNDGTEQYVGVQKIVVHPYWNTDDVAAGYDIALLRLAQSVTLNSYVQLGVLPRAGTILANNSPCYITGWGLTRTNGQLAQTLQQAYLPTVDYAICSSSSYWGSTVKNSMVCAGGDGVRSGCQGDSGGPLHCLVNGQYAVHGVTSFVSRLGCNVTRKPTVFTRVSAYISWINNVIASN

Query: Which IC50 is reported for this compound? `C=C(C)[C@@H](O)Cc1c(O)cc(O)c(C(=O)c2ccccc2)c1O`
Reply: > 318 µM

Query: Which IC50 is reported for this compound? CC1(C)CC[C@]2(C)CC=C3[C@](C)(CCC4[C@@]5(C)CC[C@H](O)[C@](C)(CO)C5CC[C@@]34C)C2C1 (stereo partly drawn) [Compound 11, 3β-24-dihydroxyterexer-14-ene]
Reply: > 226 µM

Query: Which IC50 is reported for this compound? `CC(=O)OC/C(C)=C/Cc1c(O)cc(O)c(C(=O)c2ccccc2)c1O`
Reply: > 281 µM
